Test system: HL-60
Assay: In vitro anti-cancer activity, MTS assay, 72 hours
Format: cell-based
Settings: Homo sapiens, HL-60, 72 hours
PARAMETER: pIC50
Entry type: numeric. Quantity: pIC50, the -log10 of concentration in molar units.

What measured pIC50 is associated with O=C(c1nc2cnccc2[nH]1)c1cn(Cc2ccc(Cl)cc2)c2ccccc12 [Compound (1)] on HL-60?
7.30
